Read-out: Plasminogen activator inhibitor-1 (PAI1), SERPINE1 (gene 5054)
ASSAY DETAILS: BSK_BE3C_PAI1: BioMAP Diversity Plus: BE3C Assay for Plasminogen activator inhibitor-1 (PAI1) Biomarker Activity (AID 2283037)
TEST SETTINGS: primary human bronchial epithelial cells; actives raise or lower the signal
Activity calls are given as the source filed them. The calls were made as follows: active = hit-call score of the fitted dose curve at least 0.9, where 1 is the maximum; inactive = score below 0.9.
OBSERVATION TYPE: AC50

# count of solved cases: 5
COCC(=O)N(c1c(C)cccc1C)N1CCOC1=O ... inactive
Nc1ccc(-c2ccc(N)c(N)c2)cc1N ... 11.1 µM (active)
O=C(CCl)c1ccccc1 ... inactive
CC(C)CCCCCCCOC(=O)c1ccccc1C(=O)OCCCCCCCC(C)C ... inactive
CC(C)(C)C(=O)CCl ... inactive

Consider now this further molecule.
Ask: Fill blank: measured AC50 of the molecule `C=CCN(CC=C)C(=O)C(Cl)Cl` is ____.
Result: inactive
